system: KB-3-1; assay: Cytotoxic Profiling of Annotated Libraries Using Quantitative High-Throughput Screening (AID 1296008); conditions: Five cell lines viability, CellTiter-Glo ATP luminescence, 48-72 h; active compounds read low; further: on the % scale 0 is the no-effect control and ±100 the full control effect; nearly all actives have a fitted effect of over 60% in size
Inconclusive results are not listed.
MEASURED ENDPOINT: max response (%)
Give just the numeric value; % need not be written.

Input: // lookup max response for CNC(=O)Nc1ccc(OC)c(NC(=O)NC(=O)c2cc(F)c(F)cc2Cl)c1
Output: 0.332

Input: Tell me the measured max response of O=C(O)CCc1cc2ccoc2cc1O[C@@H]1O[C@H](CO[C@@H]2OC[C@](O)(CO)[C@H]2O)[C@@H](O)[C@H](O)[C@H]1O , please.
Output: 9.81
